Target: UniProtKB P08684
Assay: Inhibition of CYP3A4 in human liver microsomes assessed as enzyme-mediated metabolite formation at 30 uM using testosterone as substrate incubated for 5 mins followed by NADPH addition measured after 30 mins by LC-MS/MS analysis relative to control
Assay type: ADME
Set-up: scale not given: the % may be the effect or the level left
Settings: probe testosterone, read-out: Activity

{"given smiles": "CCCCCCCC(=O)CCc1ccc(O)c(OC)c1", "activity at 0.5 h, 30 µM": "48.6%"}

====

Molecular target: CYP2A6 (Homo sapiens)
Sequence (P11509 whole entry): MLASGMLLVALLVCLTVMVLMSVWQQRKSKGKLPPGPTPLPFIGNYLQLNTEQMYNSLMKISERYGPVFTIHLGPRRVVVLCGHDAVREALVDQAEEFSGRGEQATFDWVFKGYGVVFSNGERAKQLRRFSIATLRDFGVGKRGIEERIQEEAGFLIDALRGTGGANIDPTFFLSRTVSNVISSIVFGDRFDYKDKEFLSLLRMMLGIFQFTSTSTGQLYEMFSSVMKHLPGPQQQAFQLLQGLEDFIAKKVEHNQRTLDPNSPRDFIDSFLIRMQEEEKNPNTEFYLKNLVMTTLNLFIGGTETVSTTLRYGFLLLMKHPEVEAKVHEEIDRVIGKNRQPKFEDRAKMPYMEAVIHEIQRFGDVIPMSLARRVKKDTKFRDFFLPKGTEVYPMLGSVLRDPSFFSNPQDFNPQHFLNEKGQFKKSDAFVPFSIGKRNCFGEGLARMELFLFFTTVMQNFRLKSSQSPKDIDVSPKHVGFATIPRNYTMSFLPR
Assay: Inhibition of CYP2A6 in human liver microsomes assessed as enzyme-mediated metabolite formation at 30 uM using coumarin as substrate incubated for 5 mins followed by NADPH addition measured after 30 mins by LC-MS/MS analysis relative to control
Type: ADME
Parameters: scale not given: the % may be the effect or the level left
Conditions: probe coumarin, read-out: Activity

{"given smiles": "CCCCCCCC(=O)CCc1ccc(O)c(OC)c1", "system": "CYP2A6 (Homo sapiens)", "measure unit": "%", "activity at 0.5 h, 30 µM": 77.4}

====

Target: UniProt:P20813
Sequence (P20813 whole entry): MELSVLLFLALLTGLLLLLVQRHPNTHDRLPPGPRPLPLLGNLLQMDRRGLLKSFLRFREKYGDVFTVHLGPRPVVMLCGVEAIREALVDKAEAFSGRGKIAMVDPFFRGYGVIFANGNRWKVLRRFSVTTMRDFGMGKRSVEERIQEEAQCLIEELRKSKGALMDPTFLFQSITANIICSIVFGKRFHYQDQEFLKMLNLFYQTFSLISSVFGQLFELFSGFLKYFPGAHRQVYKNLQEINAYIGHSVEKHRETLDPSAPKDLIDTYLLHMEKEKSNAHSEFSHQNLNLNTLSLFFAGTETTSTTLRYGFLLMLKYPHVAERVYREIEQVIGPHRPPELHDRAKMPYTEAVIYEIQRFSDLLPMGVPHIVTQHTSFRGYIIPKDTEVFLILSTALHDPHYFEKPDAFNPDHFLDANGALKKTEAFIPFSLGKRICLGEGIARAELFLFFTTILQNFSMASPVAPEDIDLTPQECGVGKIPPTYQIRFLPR
Experiment: Inhibition of CYP2B6 in human liver microsomes assessed as enzyme-mediated metabolite formation at 0.3 uM using bupropion as substrate incubated for 5 mins followed by NADPH addition measured after 30 mins by LC-MS/MS analysis relative to control
Format: ADME
Parameters: scale not given: the % may be the effect or the level left
Details: probe bupropion, read-out: Activity
measure: activity at 0.5 h, 0.3 µM

{"given smiles": "CCCCCCCC(=O)CCc1ccc(O)c(OC)c1", "system": "UniProt:P20813", "measure": "activity at 0.5 h, 0.3 µM", "observed result": "68.8%"}

====

Biological target: UniProt P10632
Sequence (P10632 whole entry): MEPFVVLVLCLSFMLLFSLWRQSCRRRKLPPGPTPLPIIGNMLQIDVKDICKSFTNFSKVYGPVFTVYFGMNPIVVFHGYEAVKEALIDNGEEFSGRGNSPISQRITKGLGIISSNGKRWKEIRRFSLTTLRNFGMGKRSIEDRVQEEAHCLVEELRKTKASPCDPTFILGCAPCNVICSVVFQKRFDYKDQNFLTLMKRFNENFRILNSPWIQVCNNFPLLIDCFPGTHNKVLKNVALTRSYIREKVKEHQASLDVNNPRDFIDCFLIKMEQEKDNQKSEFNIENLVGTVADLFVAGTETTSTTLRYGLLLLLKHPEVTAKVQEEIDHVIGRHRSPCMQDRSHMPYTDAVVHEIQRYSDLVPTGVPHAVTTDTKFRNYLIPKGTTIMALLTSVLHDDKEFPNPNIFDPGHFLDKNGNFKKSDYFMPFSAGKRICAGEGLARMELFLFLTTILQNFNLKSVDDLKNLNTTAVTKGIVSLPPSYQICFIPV
Test: Inhibition of CYP2C8 in human liver microsomes assessed as enzyme-mediated metabolite formation at 3 uM using paclitaxel as substrate preincubated for 20 mins followed by substrate addition measured after 30 mins in presence of NADPH by LC-MS/MS analysis relative to control
Format: ADME
Parameters: scale not given: the % may be the effect or the level left
Settings: probe paclitaxel, read-out: Activity

{"given smiles": "CCCCCCCC(=O)CCc1ccc(O)c(OC)c1", "activity at 0.5 h, 3 µM, %": 56.6}

====

Molecular target: CYP3A4 (Homo sapiens, UniProt P08684)
Sequence (P08684 whole entry): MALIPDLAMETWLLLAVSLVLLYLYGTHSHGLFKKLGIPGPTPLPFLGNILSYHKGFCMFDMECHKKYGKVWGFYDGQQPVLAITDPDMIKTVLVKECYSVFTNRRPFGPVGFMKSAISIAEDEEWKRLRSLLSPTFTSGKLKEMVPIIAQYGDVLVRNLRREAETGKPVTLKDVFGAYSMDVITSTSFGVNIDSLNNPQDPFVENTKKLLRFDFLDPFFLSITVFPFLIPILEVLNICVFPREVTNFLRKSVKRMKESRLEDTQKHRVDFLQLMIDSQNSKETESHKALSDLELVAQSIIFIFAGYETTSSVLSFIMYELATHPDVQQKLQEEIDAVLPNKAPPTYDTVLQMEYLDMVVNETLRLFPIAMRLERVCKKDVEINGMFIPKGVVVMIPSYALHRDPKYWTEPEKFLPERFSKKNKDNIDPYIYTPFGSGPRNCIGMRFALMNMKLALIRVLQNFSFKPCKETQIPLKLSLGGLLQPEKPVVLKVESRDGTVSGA
Test: Inhibition of CYP3A4 in human liver microsomes assessed as enzyme-mediated metabolite formation at 3 uM using testosterone as substrate preincubated for 20 mins followed by substrate addition measured after 30 mins in presence of NADPH by LC-MS/MS analysis relative to control
Assay type: ADME
Set-up: scale not given: the % may be the effect or the level left
Settings: probe testosterone, read-out: Activity
measure: activity at 0.5 h, 3 µM

{"given smiles": "CCCCCCCC(=O)CCc1ccc(O)c(OC)c1", "observed result": "95.8%"}
